Values from patent EP4786492A1

Catalogue of MFI readings, one per entry.
# system.name: monkey DLL3 on CHO-K1-cyno DLL3 cells (cynomolgus monkey)
# Sequence (chain, as listed by the source limits assumed): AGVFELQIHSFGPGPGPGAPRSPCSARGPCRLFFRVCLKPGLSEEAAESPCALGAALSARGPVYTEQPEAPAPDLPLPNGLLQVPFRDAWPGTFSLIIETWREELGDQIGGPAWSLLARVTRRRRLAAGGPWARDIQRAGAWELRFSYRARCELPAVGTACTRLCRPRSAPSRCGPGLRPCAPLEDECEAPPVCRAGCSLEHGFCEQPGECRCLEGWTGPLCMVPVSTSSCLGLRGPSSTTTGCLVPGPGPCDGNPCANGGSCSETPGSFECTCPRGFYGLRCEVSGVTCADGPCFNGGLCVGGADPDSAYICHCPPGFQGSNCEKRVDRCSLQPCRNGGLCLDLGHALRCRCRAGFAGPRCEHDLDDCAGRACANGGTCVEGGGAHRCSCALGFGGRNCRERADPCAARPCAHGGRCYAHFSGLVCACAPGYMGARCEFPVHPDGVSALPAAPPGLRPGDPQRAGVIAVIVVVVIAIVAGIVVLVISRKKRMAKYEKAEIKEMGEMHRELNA
# protocol.text: FACS, CHO-K1-cyno DLL3 cells, 20 nM antibody
Supply the numeric figure in MFI, leaving out any unit text.

{"columns": ["binder", "units", "observed.measurement"],
 "data": [
  ["Hab006VL4VH1-hFc (scFv, part only; not given: scFv linker and human IgG1 Fc, V domains shown, not shown: another chain or arm of the molecule; a dimerising Fc or GST; small tags and cut ends) VL: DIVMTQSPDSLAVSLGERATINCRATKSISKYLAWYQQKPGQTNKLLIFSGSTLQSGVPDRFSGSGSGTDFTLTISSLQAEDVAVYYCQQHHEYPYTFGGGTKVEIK VH: EVQLVQSGAEVKKPGASVKVSCKASGYTFTSYWMHWVRQAPGQRLEWMGVIDPSDSLANYNQEFKGRVTITVDTSASTAYMELSSLRSEDTAVYYCARDSTVVAPMDYWGQGTTVTVSS", "MFI", 9050],
  ["Hab008L3H2a-hFc (scFv, part only; not given: VL-VH linker and human IgG1 Fc, V domains shown, not shown: another chain or arm of the molecule; a dimerising Fc or GST; small tags and cut ends) VL: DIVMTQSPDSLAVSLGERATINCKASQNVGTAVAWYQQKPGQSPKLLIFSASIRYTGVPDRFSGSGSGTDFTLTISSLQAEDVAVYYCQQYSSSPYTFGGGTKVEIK VH: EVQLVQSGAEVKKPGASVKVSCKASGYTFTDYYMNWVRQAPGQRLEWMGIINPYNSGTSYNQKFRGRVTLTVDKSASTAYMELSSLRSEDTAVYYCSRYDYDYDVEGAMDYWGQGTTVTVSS", "MFI", 21300],
  ["Hab008L3H5-hFc (scFv, part only; not given: scFv linker and human IgG1 Fc, V domains shown, not shown: another chain or arm of the molecule; a dimerising Fc or GST; small tags and cut ends) VL: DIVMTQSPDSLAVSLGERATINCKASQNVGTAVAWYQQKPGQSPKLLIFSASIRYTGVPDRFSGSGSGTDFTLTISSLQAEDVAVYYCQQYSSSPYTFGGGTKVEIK VH: EVQLVQSGAEVKKPGASVKVSCKASGYTFTDYYMNWVRRAPGQRLEWMGIINPYNGGTSYNQKFRGRVTITVDKSASTAYMELSSLRSEDTAVYYCSRYDYDYDVEGAMDYWGQGTTVTVSS", "MFI", 20300],
  ["Hab015VL4VH5a-hFc (scFv, part only; not given: VL-VH linker and human IgG1 Fc, V domains shown, not shown: another chain or arm of the molecule; a dimerising Fc or GST; small tags and cut ends) VL: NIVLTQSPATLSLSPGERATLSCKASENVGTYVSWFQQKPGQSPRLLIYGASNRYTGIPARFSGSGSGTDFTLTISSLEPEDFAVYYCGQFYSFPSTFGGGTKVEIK VH: EVQLVESGGGLVKPGGSLRLSCVASGITFSNFWMNWVRQAPGKGLEWVGQIRLKSDDYATHYAESVKGRFTISREDSKNTVYLQMNSLKTEDTAVYYCTTGYYFDYWGQGTTVTVSS", "MFI", 7180],
  ["Hab006VL1VH4-hFc (scFv, part only; not given: VL-VH linker and human IgG1 Fc, V domains shown, not shown: another chain or arm of the molecule; a dimerising Fc or GST; small tags and cut ends) VL: DIQMTQSPSSLSASVGDRVTITCRATKSISKYLAWYQQKPGKAPKLLIFSGSTLQSGVPSRFSGSGSGTDFTLTISSLQPEDFATYYCQQHHEYPYTFGGGTKVEIK VH: EVQLVQSGAEVKKPGASVKVSCKASGYTFTSYWMHWVRQAPGQRLEWMGVIDPSDSLANYNQEFKGRVTLTVDTSSSTAYMELSSLRSEDTAVYYCARDSTVVAPMDYWGQGTTVTVSS", "MFI", 9060],
  ["Hab015VL5VH6a-hFc (scFv, part only; not given: scFv linker and human IgG1 Fc, V domains shown, not shown: another chain or arm of the molecule; a dimerising Fc or GST; small tags and cut ends) VL: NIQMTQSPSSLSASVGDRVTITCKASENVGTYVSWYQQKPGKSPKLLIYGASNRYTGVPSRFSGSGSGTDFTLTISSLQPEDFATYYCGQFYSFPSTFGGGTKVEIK VH: EVQLVESGGGLVKPGGSLRLSCAASGITFSNFWMNWVRQAPEKGLEWVGQIRLKSDDYATHYAESVKGRFTISREDSKNTVYLQMNSLKTEDTAVYYCTTGYYFDYWGQGTTVTVSS", "MFI", 6530]
]}

Query: MFI; subject: Hab015VL4VH1a-hFc (scFv, part only; not given: scFv linker and human IgG1 Fc, V domains shown, not shown: another chain or arm of the molecule; a dimerising Fc or GST; small tags and cut ends) VL: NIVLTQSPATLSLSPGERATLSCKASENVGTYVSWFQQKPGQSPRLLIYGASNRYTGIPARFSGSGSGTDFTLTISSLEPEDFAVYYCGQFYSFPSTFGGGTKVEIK VH: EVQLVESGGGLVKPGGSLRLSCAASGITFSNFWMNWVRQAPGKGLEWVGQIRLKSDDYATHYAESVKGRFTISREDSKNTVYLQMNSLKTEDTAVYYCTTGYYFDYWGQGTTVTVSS
6720

Entry Hab014VL1VH2-hFc (scFv, part only; not given: VL-VH linker and human IgG1 Fc, V domains shown, not shown: another chain or arm of the molecule; a dimerising Fc or GST; small tags and cut ends) VL: DIQMTQSPSSLSASVGDRVTITCKASEDIYNRLAWYQQKPGKVPKLLISGATSLETGVPSRFSGSGSGTDFTLTISSLQPEDVATYYCQQYWSLPWTFGGGTKVEIK VH: EVQLVQSGAEVKKPGASVKVSCKASGYTFTDYYMNWVRQAPGQRLEWMGDINPNHGDTGYNQKFTGRVTLTVDKSASTAYMELSSLRSEDTAVYYCARNFFYYGTTYGWYFDVWGQGTTVTVSS please
31500

Entry Hab015VL5VH5a-hFc (scFv, part only; not given: scFv linker and human IgG1 Fc, V domains shown, not shown: another chain or arm of the molecule; a dimerising Fc or GST; small tags and cut ends) VL: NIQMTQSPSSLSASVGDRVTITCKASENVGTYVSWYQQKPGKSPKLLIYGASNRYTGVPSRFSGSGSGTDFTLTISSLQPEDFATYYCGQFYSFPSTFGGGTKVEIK VH: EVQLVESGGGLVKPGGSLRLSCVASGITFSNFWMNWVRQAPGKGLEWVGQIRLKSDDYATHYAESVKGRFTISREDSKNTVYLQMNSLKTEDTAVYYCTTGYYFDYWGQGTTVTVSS please
7090

Entry Hab008L1H5-hFc (scFv, part only; not given: VL-VH linker and human IgG1 Fc, V domains shown, not shown: another chain or arm of the molecule; a dimerising Fc or GST; small tags and cut ends) VL: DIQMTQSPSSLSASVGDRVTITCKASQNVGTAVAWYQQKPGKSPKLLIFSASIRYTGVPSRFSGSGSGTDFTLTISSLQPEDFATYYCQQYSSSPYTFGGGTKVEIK VH: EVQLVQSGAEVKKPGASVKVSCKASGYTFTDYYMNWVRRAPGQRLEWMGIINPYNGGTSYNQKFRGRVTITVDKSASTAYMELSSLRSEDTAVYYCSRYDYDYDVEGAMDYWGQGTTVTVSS please
18400
